Item-by-item account of melting point

Sample answers from the record:
CCn1c(N)c(-c2nccn2COCC[Si](C)(C)C)c(=O)c2ccc(-c3ccc(C(C)C(=O)O)cc3)nc21 (configuration not stated)	248 °C
CCCNc1cccc(-c2ccc(C(=O)O)c(=O)[nH]2)c1	251 to 254 °C
CCOC(=O)c1cnc2sc3c(n12)CCCCC3	73 to 74 °C

Exercise: // lookup melting point for `C=CCN(CC=C)c1nc(NC(=O)COC)n2oc(=O)nc2n1`
Key: 135 to 136 °C

Exercise: Query `CCOC(=O)c1cnn(-c2ccccn2)c1C#N` next
Key: 112 to 114 °C

Exercise: Record: `NCc1ccc(CO)cc1`
Key: 102 to 123 °C

Exercise: Likewise for `C[C@@H](SCC(N)=O)[C@](O)(Cn1cncn1)c1ccc(F)cc1F` ?
Key: 144 to 145 °C

Exercise: Likewise for `CCOC(=O)N1c2ccccc2Sc2cc(O)c3ccccc3c21` ?
Key: 205 to 206 °C

Exercise: Would you kindly repeat that for CCC1SC(=O)NN=C1c1ccc(OC(F)F)c(OC)c1 (configuration not stated) ?
Key: 97 °C

Exercise: // repeat for `O=C(c1ccc(O)cc1)c1cccc(O)c1` and report
Key: 200 to 201 °C

Exercise: Ok, now COc1ccc(OC)c(C(=O)CC(O)C(=O)O)c1 (configuration not stated)
Key: 89 °C
